B1: HDV Ribozyme (parent)
chain: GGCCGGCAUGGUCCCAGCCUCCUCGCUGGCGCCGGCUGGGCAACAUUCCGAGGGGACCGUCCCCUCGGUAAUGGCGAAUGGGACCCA

Variants of: B1
Test: self-cleavage, relative activity (ratio to wild type); higher = more cleavage; co-transcriptional
Rule: Y for self-cleavage not less than 0.1, N for anything less.

variant_id="C33A U46A" class_assignment=Y
variant_id="U27A G39C" class_assignment=N
variant_id=G80A class_assignment=Y
variant_id="C44G G55U" class_assignment=Y
variant_id="G29A C75U" class_assignment=N
variant_id="C63A C66G" class_assignment=Y
variant_id="C24A G67U" class_assignment=Y
